Target: T1, human IL-10 receptor (hIL-10R alpha and beta chains) on HEK-Blue IL-10 reporter cells (human, UniProt Q13651 22-578; Q08334 20-325)
T1 sequence 1: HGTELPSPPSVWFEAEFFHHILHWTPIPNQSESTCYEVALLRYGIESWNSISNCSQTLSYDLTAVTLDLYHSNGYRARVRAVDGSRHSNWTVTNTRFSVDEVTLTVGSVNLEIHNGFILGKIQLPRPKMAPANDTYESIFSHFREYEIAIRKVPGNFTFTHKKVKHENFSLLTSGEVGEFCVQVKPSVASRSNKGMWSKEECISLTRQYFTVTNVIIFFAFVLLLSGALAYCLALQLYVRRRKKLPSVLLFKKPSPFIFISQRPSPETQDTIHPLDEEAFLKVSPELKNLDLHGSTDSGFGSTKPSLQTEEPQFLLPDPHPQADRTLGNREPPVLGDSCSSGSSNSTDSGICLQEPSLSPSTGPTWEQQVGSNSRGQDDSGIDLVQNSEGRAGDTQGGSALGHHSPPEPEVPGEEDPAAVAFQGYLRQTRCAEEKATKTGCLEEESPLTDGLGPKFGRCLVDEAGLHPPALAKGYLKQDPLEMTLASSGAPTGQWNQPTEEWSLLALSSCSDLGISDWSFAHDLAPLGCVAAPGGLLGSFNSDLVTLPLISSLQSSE
T1 sequence 2: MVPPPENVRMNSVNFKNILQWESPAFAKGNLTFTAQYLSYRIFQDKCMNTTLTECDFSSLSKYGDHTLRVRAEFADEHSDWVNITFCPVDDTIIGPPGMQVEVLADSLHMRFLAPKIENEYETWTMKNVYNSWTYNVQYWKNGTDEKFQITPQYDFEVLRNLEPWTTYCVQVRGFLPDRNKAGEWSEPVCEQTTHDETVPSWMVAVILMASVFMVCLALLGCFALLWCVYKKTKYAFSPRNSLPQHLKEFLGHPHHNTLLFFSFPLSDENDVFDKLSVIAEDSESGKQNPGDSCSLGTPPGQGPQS
Assay: cell-based or functional assay
// reported Abs 630 (100 nM) per item
Note: a bare number is incomplete; add the unit.

Some entries whose results are on file:
[
  {
    "Binder": "IL10R binding molecule of SEQ ID NO: 312 (bispecific antibody) QVQLQESGGGSVQAGGSLRLSCAASGYTYSSYCMGWFRQAPGKEREGVAHIDSDGSTSYADSVKGRFTISKDNAKNTLYLQMNSLKPEDTAMYYCAADPIPGPGYCDGGPNKYWGQGTQVTVSSGGGSQVQLQESGGGSVQAGGSLRLSCAASRYLYSIDYMAWFRQSPGKEREPVAVIYTASGATFYPDSVKGRFTISQDNAKMTVYLQMNSLKSEDTAMYYCAAVRKTDSYLFDAQSFTYWGQGTQVTVSSASHHHHHH",
    "Assay readout": "Abs 630 (100 nM)",
    "Value measured": "0.39 Abs 630"
  },
  {
    "Binder": "IL10R binding molecule of SEQ ID NO: 306 (bispecific antibody) QVQLQESGGGSVQAGGSLRLSCAASGYTYSSGCMGWFRQAPGKEREAVAAINSDGSTSYADSVKGRFTISKDNAKNTLYLQMNSLKPEDTAMYYCAAEPYCSGGYPRWSVAEFGYWGQGTQVTVSSGGGSQVQLQESGGGSVQAGGSLRLSCAASRFTYSSYCMGWFRQAPGKEREGVASIDSDGSTSYTDSVKGRFTISKDNAKNTLYLQMNSLKPEDTAMYYCALDLMSTVVPGFCGFLLSAGMDYWGKGTQVTVSSASHHHHHH",
    "Assay readout": "Abs 630 (100 nM)",
    "Value measured": "0.49 Abs 630"
  }
]

The value of Abs 630 (100 nM) measured for the binder IL10R binding molecule of SEQ ID NO: 303 (bispecific antibody) QVQLQESGGGSVQAGGSLRLSCAASGYSNCSYDMTWYRQAPGKEREFVSAIHSDGSTRYADSVKGRFFISQDNAKNTVYLQMNSLKPEDTAMYYCKTDPLHCRAHGGSWYSVRANYWGQGTQVTVSSGGGSQVQLQESGGGSVQAGGSLRLSCAASGYSYSSYCMGWFRQAPGKEREGVATIDSDGMTRYADSVKGRFTISKDNAKNTLYLQMNSLKPEDTAMYYCAAPLYDCDSGAVGRNPPYWGQGTQVTVSSASHHHHHH turned out to be 1.93 Abs 630
